System: FRT null cells
Experiment: Cytotoxicity by Alamar Blue assay in FRT cells
Assay type: cell-based, rat
Conditions: 8 h
Listing of recorded Cellular survival % at 5 μM by entry.
Response body: numeric value in %, unit text excluded.

Examples from the recorded data:
smiles	display_unit	result_number
Cc1ccccc1NC(=O)c1c(NC(=O)C(F)(F)F)sc2c1CCCCC2	%	99
Cc1ccccc1NC(=O)c1c(NC(=O)C(F)(F)I)sc2c1CCCCC2	%	96
Cc1ccccc1NC(=O)c1c(NC(=O)C(F)(F)Br)sc2c1CCCCC2	%	97

Continue with the next compound.
Req: Item under review: `Cc1ccccc1NC(=O)c1c(NC(=O)C(F)(F)Cl)sc2c1CCCCC2` . Reported Cellular survival % at 5 μM?
Resp: 98

* * *

We begin with a simple list: items and their reported IC50.
Target: TMEM16A (Homo sapiens, UniProt Q5XXA6)
Sequence (Q5XXA6 whole entry): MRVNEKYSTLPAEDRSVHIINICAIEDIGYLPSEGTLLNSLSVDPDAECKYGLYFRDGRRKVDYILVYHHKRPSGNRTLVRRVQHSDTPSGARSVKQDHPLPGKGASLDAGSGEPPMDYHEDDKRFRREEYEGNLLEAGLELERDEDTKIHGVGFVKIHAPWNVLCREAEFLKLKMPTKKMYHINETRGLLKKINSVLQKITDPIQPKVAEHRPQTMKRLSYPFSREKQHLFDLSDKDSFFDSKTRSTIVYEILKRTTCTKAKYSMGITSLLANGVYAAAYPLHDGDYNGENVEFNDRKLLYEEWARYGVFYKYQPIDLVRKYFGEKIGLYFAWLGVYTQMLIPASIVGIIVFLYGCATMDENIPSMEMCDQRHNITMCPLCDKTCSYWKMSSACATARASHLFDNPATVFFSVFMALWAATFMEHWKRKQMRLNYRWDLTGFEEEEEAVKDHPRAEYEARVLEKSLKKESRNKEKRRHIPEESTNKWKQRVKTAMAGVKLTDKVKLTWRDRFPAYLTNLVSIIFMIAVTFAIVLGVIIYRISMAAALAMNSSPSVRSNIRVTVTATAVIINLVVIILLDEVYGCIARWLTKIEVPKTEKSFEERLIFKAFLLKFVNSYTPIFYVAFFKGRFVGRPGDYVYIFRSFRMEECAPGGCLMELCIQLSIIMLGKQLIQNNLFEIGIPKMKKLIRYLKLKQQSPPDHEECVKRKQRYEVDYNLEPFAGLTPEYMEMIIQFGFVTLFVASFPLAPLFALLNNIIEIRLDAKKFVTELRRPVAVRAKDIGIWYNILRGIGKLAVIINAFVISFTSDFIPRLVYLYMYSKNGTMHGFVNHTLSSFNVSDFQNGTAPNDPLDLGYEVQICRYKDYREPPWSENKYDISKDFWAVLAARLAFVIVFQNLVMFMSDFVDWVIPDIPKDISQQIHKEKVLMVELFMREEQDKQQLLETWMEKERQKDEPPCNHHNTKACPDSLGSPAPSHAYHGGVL
Assay: TMEM16A functional fluorescence plate reader (FPR) assay, iodide influx in FRT cells with YFP
Assay type: cell-based
Conditions: TMEM16A-expressing FRT cells, compound 10 min before iodide/ATP
Please format your answer as a value with the unit trailing.

Consider the following illustrative entries.
molecule	experimental_system	result
O=C(Nc1ccccc1)c1c(NC(=O)C(F)(F)Cl)sc2c1CCCCC2 [Compound 6bo]	TMEM16A (Homo sapiens, UniProt Q5XXA6)	925 nM
O=C(Nc1ccccc1OC(F)(F)F)c1c(NC(=O)C(F)(F)I)sc2c1CCC2 [Compound 6bw]	TMEM16A (Homo sapiens, UniProt Q5XXA6)	1880 nM
Cc1ccccc1NC(=O)c1c(NC(=O)C(F)(F)F)sc2c1CCCCC2 [Compound 6aa]	TMEM16A (Homo sapiens, UniProt Q5XXA6)	420 nM
CCC(=O)Nc1sc2c(c1C(=O)Nc1ccccc1)CCCCC2 [Compound 6ah]	TMEM16A (Homo sapiens, UniProt Q5XXA6)	1200 nM
Cc1ccccc1NC(=O)c1c(NC(=O)C(F)(F)I)sc2c1CCCCC2 [Compound 6bn]	TMEM16A (Homo sapiens, UniProt Q5XXA6)	600 nM

Turning now to a further record.
Req: Recorded IC50 of O=C(Nc1ccccc1F)c1c(NC(=O)C(F)(F)F)sc2c1CCCCC2 [Compound 6aj] , please.
Resp: 1300 nM

* * *

Test system: SW-480 cells
Experiment: SW-480 cell proliferation, AlamarBlue after 72 h
Assay type: cell-based
Details: Homo sapiens, SW480; AlamarBlue after 72 h of drug treatment; read-out: IC50 inhibition of SW-480 cell proliferation
endpoint_name: pIC50
To interpret pIC50, take it as minus log10 of a concentration measured in moles per litre.

Req: What value of pIC50 on SW-480 cells does Cc1ccccc1NC(=O)c1c(NC(=O)C(F)(F)F)sc2c1CCCCC2 [Compound 6aa] have?
Resp: 6.02

Req: Proceed to Cc1ccccc1NC(=O)c1c(NC(=O)C(F)(F)Cl)sc2c1CCCCC2 [Compound 6bk]
Resp: 6.12

Req: Next record, please: Cc1ccccc1NC(=O)c1c(NC(=O)C(F)(F)Br)sc2c1CCCCC2 [Compound 6bm]
Resp: 5.15

Req: Do the same for COc1ccc(Cl)cc1NC(=O)c1c(NC(=O)C(F)(F)F)sc2c1CCCCC2 [am1_47] please
Resp: 6.33

Data provenance is patent US11358947B2.
